Values were extracted from patent US4681884A.

Tested on: Passive Cutaneous Anaphylaxis
Experiment: Passive Cutaneous Anaphylaxis (PCA) Assay, in vivo anti-allergic activity
Design: species or system rat
Details: Rattus norvegicus, 0.5 h; 10 mg/kg, p.o.; oral administration 30 minutes before ovalbumin challenge; blued area vs control

MOLECULE | inhibition in vivo at 10 mg/kg [%]
O=C(O)C(=O)Nc1cccc(C=Cc2ccnc(NC(=O)C(=O)O)n2)c1 [Example 29] | 67
CCOC(=O)C(=O)Nc1cccc(C=Cc2cc(NC(=O)C(=O)OCC)nc(C)n2)c1 [Example 26, hemihydrate] | 64
CCOC(=O)C(=O)Nc1ccccc1C=Cc1ccncn1 [Example 6] | 20
CCc1nccnc1C=Cc1ccc(NC(=O)C(=O)O)cc1 [Example 31] | 15
Cc1nc(C=Cc2cccc(NC(=O)C(=O)O)c2)cc(NC(=O)C(=O)O)n1 [Example 27] | 0
CC(=O)Nc1nccc(C=Cc2cccc(NC(=O)C(=O)O)c2)n1 [Example 17] | 37
CCOC(=O)C(=O)Nc1cccc(C=Cc2ccnc(NC(=O)C(=O)OCC)n2)c1 [Example 28] | 5
CCOCCOC(=O)C(=O)Nc1ccc(C=Cc2cc(N)nc(C)n2)cc1 [Example 33, hemihydrate] | 52
CCOC(=O)C(=O)Nc1cc(C=Cc2ccncn2)ccc1OCCN(C)C [Example 11] | 9
